Compiled from multiple publications: pIC50 readings for Proto-oncogene tyrosine-protein kinase receptor Ret (Homo sapiens, UniProt P07949).
pIC50: −log10 of the molar value.

As a guide, the following entries are already answered.
INSERT INTO results (compound, observed_result) VALUES
  ('CC(C)(O)COc1cc(-c2cnc(N3C4CC5CC3CC(NC(=O)c3ncccc3Cl)(C5)C4)cn2)c2c(C#N)cnn2c1', '≥ 8.00'),
  ('COCCOCCOCCOCCNC(=O)c1c(C)[nH]c(/C=C2\C(=O)Nc3ccc(F)cc32)c1C', 6.46),
  ('COc1cc(-c2nn(-c3cccc(N(C)C(=O)/C=C/CN(C)C4CC4)c3)c3ncnc(N)c23)ccc1C', '< 6.00');

What pIC50 appears in the records for this compound with Proto-oncogene tyrosine-protein kinase receptor Ret (Homo sapiens, UniProt P07949)? CC(C)(O)COc1cc(-c2ccc(N3C[C@@H]4[C@H](C3)[C@H]4NC(=O)[C@H](O)c3ccccc3)nc2)c2c(C#N)cnn2c1
7.30 to 8.00

What pIC50 appears in the records for this compound with Proto-oncogene tyrosine-protein kinase receptor Ret (Homo sapiens, UniProt P07949)? Cn1cc(-c2cc(-c3cnc(N4C5CC6CC4CC(O)(C6)C5)cn3)c3c(C#N)cnn3c2)cn1
≥ 8.00

What pIC50 appears in the records for this compound with Proto-oncogene tyrosine-protein kinase receptor Ret (Homo sapiens, UniProt P07949)? Cc1cc(Nc2cc(C)[nH]n2)nc(N2CC(F)(C(=O)NCc3ccc(-n4cccn4)nc3)C2)n1
> 8.00

What pIC50 appears in the records for this compound with Proto-oncogene tyrosine-protein kinase receptor Ret (Homo sapiens, UniProt P07949)? CCOc1cc(-c2ccc(NC(=O)Nc3ccc(OC(C)C)c(C(F)F)c3)cc2F)c[nH]c1=O
> 7.00

What pIC50 appears in the records for this compound with Proto-oncogene tyrosine-protein kinase receptor Ret (Homo sapiens, UniProt P07949)? Cc1cc(Nc2cc(C)[nH]n2)nc(N2CCC(C)(C(=O)N[C@@H](C)c3ccc(-n4cc(F)cn4)nc3)CC2)c1
> 8.00
